- System: pigweed (Amaranthus retroflexus)
- protocol_text: Test B pre-/postemergence plant response
- Assay type: in vivo
- reported_conditions: Preemergence, 125 g ai/ha; 0 to 100 scale (0 no effect, 100 complete control)
Task for the reader: assign each of the following compounds its reported Pigweed plant response rating.

Examples with their reported Pigweed plant response rating follow.
[
  {
    "compound": "Cc1cnc(Oc2ccccc2-c2cc(C(C)(F)F)on2)nc1 [Compound 173]",
    "Pigweed plant response rating": 100
  },
  {
    "compound": "Fc1cccc(Oc2ncc(Cl)cn2)c1-c1cc(C2CC2)on1 [Compound 130]",
    "Pigweed plant response rating": 100
  },
  {
    "compound": "O=[N+]([O-])c1cc(Cl)cnc1-c1ccccc1Oc1ncc(Cl)cn1 [Compound 201]",
    "Pigweed plant response rating": 0
  },
  {
    "compound": "Cn1ccnc1-c1ccccc1Oc1ncc(Cl)cn1 [Compound 151]",
    "Pigweed plant response rating": 0
  }
]

The reported Pigweed plant response rating of the compound N#Cc1cccc(-n2cc(Br)cn2)c1Oc1ncc(Cl)cn1 [Compound 209] was 90

---

- Test system: corn (Zea mays)
- protocol_text: Test B pre-/postemergence plant response
- Assay type: in vivo
- reported_conditions: Postemergence, 500 g ai/ha; 0 to 100 scale (0 no effect, 100 complete control)
Task for the reader: assign each of the following compounds its reported Plant response rating, Corn.
One number for each entry.

Examples with their reported Plant response rating, Corn follow.
[
  {
    "smiles_representation": "Cn1cc(-c2ccccc2Oc2ncc(Cl)cn2)nn1",
    "tested_system": "corn (Zea mays)",
    "Plant response rating, Corn": 0
  },
  {
    "smiles_representation": "Clc1cnc(Oc2ccccc2-c2cc(Cl)ncn2)nc1",
    "tested_system": "corn (Zea mays)",
    "Plant response rating, Corn": 0
  }
]

Please state, for each entry, its recorded Plant response rating, Corn.
1. FC(F)(F)c1nccc(-c2ccccc2Oc2ncc(Cl)cn2)n1
2. Cn1nc(C(F)(F)F)cc1-c1c(C#N)cccc1Oc1ncc(Cl)cn1
3. FC(F)(F)c1cnc(Oc2ccccc2-c2cncs2)nc1
4. Clc1cnc(Oc2ccccc2-c2nccc(Cl)n2)nc1

1: 0; 2: 70; 3: 10; 4: 0

---

Task for the reader: assign each of the following molecules its reported Plant response rating, Velvetleaf.
- Test system: velvetleaf (Abutilon theophrasti)
- protocol_text: Test B pre-/postemergence plant response
- Type: in vivo
- reported_conditions: Preemergence, 1000 g ai/ha; 0 to 100 scale (0 no effect, 100 complete control)
One number for each entry.

Examples with their reported Plant response rating, Velvetleaf follow.
[
  {
    "molecule": "Clc1cnc(Oc2ccccc2-c2ncco2)nc1 [Compound 61]",
    "Plant response rating, Velvetleaf": 50
  },
  {
    "molecule": "Clc1cnc(Oc2ccccc2-c2cncs2)nc1 [Compound 9]",
    "Plant response rating, Velvetleaf": 10
  },
  {
    "molecule": "CN(C)c1ccc(-c2ccccc2Oc2ncc(Cl)cn2)cn1 [Compound 2]",
    "Plant response rating, Velvetleaf": 20
  },
  {
    "molecule": "FC(F)(F)Oc1cccc(-c2ccccc2Oc2ncc(Cl)cn2)c1 [Compound 40]",
    "Plant response rating, Velvetleaf": 90
  }
]

Query molecule follows.
The reported Plant response rating, Velvetleaf of the molecule Clc1cnc(Oc2ccccc2-c2ncc(Cl)cn2)nc1 [Compound 3] was 90

---

Task for the reader: assign each of the following compounds its reported Plant response rating, Ragweed.
- System: ragweed (common ragweed, Ambrosia elatior)
- protocol_text: Test B pre-/postemergence plant response
- Format: in vivo
- reported_conditions: 31 g ai/ha, Preemergence; 0 to 100 scale where 0 is no effect and 100 is complete control
Give bare numbers.

[
  {
    "smiles_representation": "FC(F)c1cc(-c2c(Cl)cccc2Oc2ncc(Cl)cn2)on1",
    "assay_result": 10
  },
  {
    "smiles_representation": "Fc1cnc(Oc2cccc(F)c2-c2cnccn2)nc1",
    "assay_result": 0
  },
  {
    "smiles_representation": "Fc1ccc(-c2cc(C(F)(F)F)no2)c(Oc2ncc(Br)cn2)c1",
    "assay_result": 0
  },
  {
    "smiles_representation": "Cc1csc(-c2ccccc2Oc2ncc(Cl)cn2)c1",
    "assay_result": 0
  },
  {
    "smiles_representation": "CC(F)(F)c1cc(-c2ccccc2Oc2ncc(Cl)cn2)no1",
    "assay_result": 0
  },
  {
    "smiles_representation": "Fc1cccc(Oc2ncc(Cl)cn2)c1-c1cc(C(F)F)no1",
    "assay_result": 0
  },
  {
    "smiles_representation": "CC(F)(F)c1cc(-c2ccccc2Oc2ncc(Br)cn2)no1",
    "assay_result": 0
  },
  {
    "smiles_representation": "FC(F)(Cl)c1cc(-c2ccccc2Oc2ncc(Cl)cn2)no1",
    "assay_result": 0
  }
]

Please state, for each entry, its recorded Plant response rating, Ragweed.
1. Fc1cccc(Oc2ncc(Br)cn2)c1-c1cc(C(F)F)no1
2. CCOC(OCC)c1cc(-c2ccccc2Oc2ncc(Cl)cn2)on1
3. FC(F)Oc1cccc(Oc2ncc(Cl)cn2)c1-c1cc(C(F)F)on1
4. Fc1cccc(Oc2ncc(Cl)cn2)c1-c1cc(C2CC2)on1
5. Fc1ccnc(-c2ccccc2Oc2ncc(Cl)cn2)c1
6. FC(F)(F)COCc1cc(-c2ccccc2Oc2ncc(Cl)cn2)on1
7. Cc1ccnc(-c2ccccc2Oc2ncc(Cl)cn2)c1

0
0
20
10
0
0
0

Please state, for each entry, its recorded Plant response rating, Ragweed.
1. FC(F)c1cc(-c2ccccc2Oc2ncc(Br)cn2)on1
2. COc1cccc(Oc2ncc(Cl)cn2)c1-c1cc(C(F)F)on1

1. 0
2. 20

---

Task for the reader: assign each of the following compounds its reported Plant response rating, Nutsedge, Yellow.
- System: yellow nutsedge (Cyperus esculentus)
- protocol_text: Test D pre-/postemergence plant response
- Type: in vivo
- reported_conditions: Postemergence, 125 g ai/ha; scale 0 to 100, 0 no effect, 100 complete control
Give bare numbers.

[
  {
    "smiles_representation": "FC(F)c1cc(-c2c(Cl)cccc2Oc2ncc(Br)cn2)on1",
    "Plant response rating, Nutsedge, Yellow": 20
  },
  {
    "smiles_representation": "FC(F)(Br)c1cc(-c2ccccc2Oc2ncc(Cl)cn2)no1",
    "Plant response rating, Nutsedge, Yellow": 10
  },
  {
    "smiles_representation": "Cc1cc(-c2c(F)cccc2Oc2ncc(Cl)cn2)on1",
    "Plant response rating, Nutsedge, Yellow": 10
  },
  {
    "smiles_representation": "Fc1cccc(Oc2ncc(Cl)cn2)c1-c1cc(C2CC2)on1",
    "Plant response rating, Nutsedge, Yellow": 25
  }
]

Query compound follows.
The reported Plant response rating, Nutsedge, Yellow of the compound `Clc1cnc(Oc2ccccc2-c2cc(C3CC3)on2)nc1` was 5

---

Task for the reader: assign each of the following molecules its reported Barnyardgrass plant response rating.
- Test system: barnyardgrass (Echinochloa crus-galli)
- protocol_text: Test C flooded paddy test plant response
- Type: in vivo
- reported_conditions: Flood, 250 g ai/ha; scale of 0 to 100 where 0 is no effect and 100 is complete control; 13 to 15 days
One number for each entry.

Examples with their reported Barnyardgrass plant response rating follow.
[
  {
    "smiles_representation": "FC(Cl)(Cl)c1cc(-c2ccccc2Oc2ncc(Cl)cn2)no1",
    "assay_result": 40
  },
  {
    "smiles_representation": "Cn1nc(C(F)(F)F)cc1-c1ccccc1Oc1ncc(Br)cn1",
    "assay_result": 0
  },
  {
    "smiles_representation": "Clc1cnc(Oc2ccccc2-c2nccc(Cl)n2)nc1",
    "assay_result": 0
  },
  {
    "smiles_representation": "Fc1ccc(Oc2ncc(Cl)cn2)c(-c2cc(C(F)F)on2)c1F",
    "assay_result": 0
  }
]

The reported Barnyardgrass plant response rating of the molecule `N#Cc1cc(-c2c(F)cccc2Oc2ncc(Cl)cn2)no1` was 0

---

- Test system: Italian ryegrass (Lolium multiflorum)
- protocol_text: Test D pre-/postemergence plant response
- Format: in vivo
- reported_conditions: Postemergence, 62 g ai/ha; scale 0 to 100, 0 no effect, 100 complete control
measured_metric: Ryegrass, Italian plant response rating
One number for each entry.

Examples with their reported Ryegrass, Italian plant response rating follow.
[
  {
    "smiles_representation": "Fc1cccc(Oc2ncc(Cl)cn2)c1-c1cc(C(F)(F)F)no1",
    "Ryegrass, Italian plant response rating": 15
  },
  {
    "smiles_representation": "Clc1cnc(Oc2ccccc2-c2cc(Cl)sn2)nc1",
    "Ryegrass, Italian plant response rating": 0
  },
  {
    "smiles_representation": "CC(F)(F)c1cc(-c2ccccc2Oc2ncc(Cl)cn2)on1",
    "Ryegrass, Italian plant response rating": 5
  }
]

Please state, for each entry, its recorded Ryegrass, Italian plant response rating.
1. Clc1cnc(Oc2ccccc2-c2ccon2)nc1
2. FCc1cc(-c2c(Br)cccc2Oc2ncc(Cl)cn2)no1

1: 0; 2: 0
